Origin of the recorded values: paper PMC10894281

target or system: RNA cap guanine-N7 methyltransferase (hRNMT) (Homo sapiens)
Sequence (O43148 whole entry): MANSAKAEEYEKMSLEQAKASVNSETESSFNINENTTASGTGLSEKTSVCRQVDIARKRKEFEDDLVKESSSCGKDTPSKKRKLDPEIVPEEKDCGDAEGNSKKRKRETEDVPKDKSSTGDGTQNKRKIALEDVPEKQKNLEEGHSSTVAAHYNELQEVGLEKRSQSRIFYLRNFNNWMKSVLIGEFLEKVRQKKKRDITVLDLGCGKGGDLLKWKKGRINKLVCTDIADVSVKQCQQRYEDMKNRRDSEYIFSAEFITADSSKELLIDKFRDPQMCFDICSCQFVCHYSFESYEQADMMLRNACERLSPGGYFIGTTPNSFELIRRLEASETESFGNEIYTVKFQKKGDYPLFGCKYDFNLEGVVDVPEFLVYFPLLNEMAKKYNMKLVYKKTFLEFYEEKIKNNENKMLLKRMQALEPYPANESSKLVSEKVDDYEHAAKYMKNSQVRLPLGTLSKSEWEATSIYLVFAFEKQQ
assay name: radiometric scintillation proximity methyltransferase assay (3H-SAM, biotinylated RNA)
Type: biochemical
Parameters: gene RNMT; RNMT (1–476), full length
property label: pIC50
Answer as the number alone; pIC50 is minus log10 of concentration in mol/L.

Recall the reported pIC50 of Nc1ncnc2c1ncn2[C@@H]1O[C@H](C[C@@H](N)CC[C@H](N)C(=O)O)[C@@H](O)[C@H]1O on RNA cap guanine-N7 methyltransferase (hRNMT) (Homo sapiens) and write it down.
8.52

----------
target or system: RNA cap guanine-N7 methyltransferase (hRNMT) (Homo sapiens)
assay name: radiometric scintillation proximity methyltransferase assay (3H-SAM, biotinylated RNA); product inhibition
Assay type: biochemical
Set-up: gene RNMT; RNMT (1–476), full length
property label: IC50 (nM)
Number only, in nM; omit the unit.

Recall the reported IC50 of Nc1ncnc2c1ncn2[C@@H]1O[C@H](CSCC[C@H](N)C(=O)O)[C@@H](O)[C@H]1O on RNA cap guanine-N7 methyltransferase (hRNMT) (Homo sapiens) and write it down.
389
